B1: C1orf137 (parent)
chain: RQHHHQSSFPGSLPQETNLTLKVC

variants of: B1; test: protein stability index of a GFP-peptide fusion (GPS, HEK-293T) (PSI 1-6); higher = more stable; conditions: c terminus: a fixed tail appended;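 also: lentivirally expressed fusions sorted by FACS into six bins by GFP to DsRed ratio, PSI derived from sequencing read proportions per bin multiplied by bin number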
The following variants are listed with their measured protein stability index values.

// worked examples, protein stability index included
G11I : 2.85
Q2H : 2.27
T17L : 1.57
Q6D : 3.39
H5P : 2.9
S12G : 2.96

QUERY: I have this variant here, L19T , and I need its recorded protein stability index.
RESULT: 3.96

QUERY: Repeat with L21F
RESULT: 2.88

QUERY: Another variant to check: L13Q
RESULT: 2.89

QUERY: Next variant: L13N
RESULT: 3.71

QUERY: Now try S8L .
RESULT: 2.45

QUERY: Lookup T20F
RESULT: 2.09

QUERY: Then this variant: P10F
RESULT: 2.27

QUERY: Now the same for Q2C
RESULT: 2.04

QUERY: // repeat for Q2Y and report
RESULT: 2.63

QUERY: Next up: L13M
RESULT: 3.29

QUERY: Input V23Y
RESULT: 2.73

QUERY: Subsequent entry: N18L
RESULT: 2.2

QUERY: What do we get for H4D ?
RESULT: 3.56

QUERY: Also need T20A , thanks.
RESULT: 3
